Consider the following molecules; for each one, report its MIC.
Test system: Trychophyton mentagrophyes #6
run_description: Agar plate disc diffusion test, MIC per disc
Type: cell-based, Trichophyton mentagrophytes
measurement_setup: 0.1M sodium borate, pH 7.5, 24 hours, 30° C., * measurable zones with regrowth of organism around disc
Starred links: 1 amine or outer side, 2 acyl side, 3 side chain; linkers in the order of their positions; H or OH if unused. Positions of bridges follow the written chain, without caps; N, C: chain ends. Non-standard residues stand in square brackets, D forms with d. Residues, ends and D or L forms follow the SMILES beside them. *: point of attachment. Orn(4R-OH,5R-OH) = O=C([C@H](C[C@@H](O)[C@@H](O)N[*:3])N[*:1])[*:2]; hTyr(3S-OH,4S-OH) = N[C@H](C(=O)O)[C@H](O)[C@@H](O)c1ccc(O)cc1; Pro(3S-OH,4S-Me) = C[C@H]1CN[C@H](C(=O)O)[C@H]1O; X22 = CCCCCCCCCCCCOc1ccc(CCC(=O)*)cc1; Hyp = O=C(O)[C@@H]1C[C@@H](O)CN1; X19 = CCCCCCOc1ccc(C=CC(=O)*)cc1; X6 = CCCCCCCCCCSc1ccc(C(=O)*)cc1
Give bare numbers, in μg/disc.

See these solved cases before continuing.
molecule	unit	MIC
CCCCCCOc1ccc(C=CC(=O)N[C@H]2C[C@@H](O)[C@@H](O)NC(=O)[C@@H]3[C@@H](O)[C@@H](C)CN3C(=O)[C@H]([C@@H](C)O)NC(=O)[C@H]([C@H](O)[C@@H](O)c3ccc(O)cc3)NC(=O)[C@@H]3C[C@@H](O)CN3C(=O)[C@H]([C@@H](C)O)NC2=O)cc1 [drawing 139] (X19-[Orn(4R-OH,5R-OH)]T[Hyp][hTyr(3S-OH,4S-OH)]T[Pro(3S-OH,4S-Me)]; lactam 1-C)	μg/disc	0.156
CCCCCCCCCCSc1ccc(C(=O)N[C@H]2C[C@@H](O)[C@@H](O)NC(=O)[C@@H]3[C@@H](O)[C@@H](C)CN3C(=O)[C@H]([C@@H](C)O)NC(=O)[C@H]([C@H](O)[C@@H](O)c3ccc(O)cc3)NC(=O)[C@@H]3C[C@@H](O)CN3C(=O)[C@H]([C@@H](C)O)NC2=O)cc1 [drawing 120] (X6-[Orn(4R-OH,5R-OH)]T[Hyp][hTyr(3S-OH,4S-OH)]T[Pro(3S-OH,4S-Me)]; lactam 1-C)	μg/disc	0.039

Let's switch to this molecule now.
Lab book: MIC of CCCCCCCCCCCCOc1ccc(CCC(=O)N[C@H]2C[C@@H](O)[C@@H](O)NC(=O)[C@@H]3[C@@H](O)[C@@H](C)CN3C(=O)[C@H]([C@@H](C)O)NC(=O)[C@H]([C@H](O)[C@@H](O)c3ccc(O)cc3)NC(=O)[C@@H]3C[C@@H](O)CN3C(=O)[C@H]([C@@H](C)O)NC2=O)cc1 [drawing 137] (X22-[Orn(4R-OH,5R-OH)]T[Hyp][hTyr(3S-OH,4S-OH)]T[Pro(3S-OH,4S-Me)]; lactam 1-C) noted as 0.156

* * *

Test system: Trychophyton mentagrophyes #6
run_description: Agar plate disc diffusion test, MIC per disc
Assay type: cell-based, Trichophyton mentagrophytes
measurement_setup: 0.1M sodium borate, pH 7.5, 24 hours, 30° C., * measurable zones with regrowth of organism around disc
Starred links: 1 amine or outer side, 2 acyl side, 3 side chain; linkers in the order of their positions; H or OH if unused. Positions of bridges follow the written chain, without caps; N, C: chain ends. Non-standard residues stand in square brackets, D forms with d. Residues, ends and D or L forms follow the SMILES beside them. *: point of attachment. Orn(4R-OH,5R-OH) = O=C([C@H](C[C@@H](O)[C@@H](O)N[*:3])N[*:1])[*:2]; hTyr(3S-OH,4S-OH) = N[C@H](C(=O)O)[C@H](O)[C@@H](O)c1ccc(O)cc1; Pro(3S-OH,4S-Me) = C[C@H]1CN[C@H](C(=O)O)[C@H]1O; X18 = CCCCCCCCCCCCOc1ccc(CC(=O)*)cc1; Hyp = O=C(O)[C@@H]1C[C@@H](O)CN1; X30 = CCCCCCCCOc1ccc(C(=O)*)cn1
measured_quantity: MIC (μg/disc)
Numbers only, in μg/disc.

molecule	unit	MIC
CCCCCCCCOc1ccc(C(=O)N[C@H]2C[C@@H](O)[C@@H](O)NC(=O)[C@@H]3[C@@H](O)[C@@H](C)CN3C(=O)[C@H]([C@@H](C)O)NC(=O)[C@H]([C@H](O)[C@@H](O)c3ccc(O)cc3)NC(=O)[C@@H]3C[C@@H](O)CN3C(=O)[C@H]([C@@H](C)O)NC2=O)cn1 (X30-[Orn(4R-OH,5R-OH)]T[Hyp][hTyr(3S-OH,4S-OH)]T[Pro(3S-OH,4S-Me)]; lactam 1-C)	μg/disc	2.5

Let's switch to this molecule now.
Lab book: MIC of CCCCCCCCCCCCOc1ccc(CC(=O)N[C@H]2C[C@@H](O)[C@@H](O)NC(=O)[C@@H]3[C@@H](O)[C@@H](C)CN3C(=O)[C@H]([C@@H](C)O)NC(=O)[C@H]([C@H](O)[C@@H](O)c3ccc(O)cc3)NC(=O)[C@@H]3C[C@@H](O)CN3C(=O)[C@H]([C@@H](C)O)NC2=O)cc1 [drawing 142] (X18-[Orn(4R-OH,5R-OH)]T[Hyp][hTyr(3S-OH,4S-OH)]T[Pro(3S-OH,4S-Me)]; lactam 1-C) noted as 0.625

* * *

run_description: in vivo
measurement_setup: mouse, po, 416 mg/kg
Starred links: 1 amine or outer side, 2 acyl side, 3 side chain; linkers in the order of their positions; H or OH if unused. Positions of bridges follow the written chain, without caps; N, C: chain ends. Non-standard residues stand in square brackets, D forms with d. Residues, ends and D or L forms follow the SMILES beside them. *: point of attachment. Orn(4R-OH,5R-OH) = O=C([C@H](C[C@@H](O)[C@@H](O)N[*:3])N[*:1])[*:2]; hTyr(3S-OH,4S-OH) = N[C@H](C(=O)O)[C@H](O)[C@@H](O)c1ccc(O)cc1; Pro(3S-OH,4S-Me) = C[C@H]1CN[C@H](C(=O)O)[C@H]1O; X20 = CCCCCCCCCCCCCCOc1ccc(C(=O)*)cc1; Hyp = O=C(O)[C@@H]1C[C@@H](O)CN1; X6 = CCCCCCCCCCSc1ccc(C(=O)*)cc1
Consider the following compounds; for each one, report its Cmax.
Numeric answer plus unit only.

compound	Cmax
CCCCCCCCCCCCCCOc1ccc(C(=O)N[C@H]2C[C@@H](O)[C@@H](O)NC(=O)[C@@H]3[C@@H](O)[C@@H](C)CN3C(=O)[C@H]([C@@H](C)O)NC(=O)[C@H]([C@H](O)[C@@H](O)c3ccc(O)cc3)NC(=O)[C@@H]3C[C@@H](O)CN3C(=O)[C@H]([C@@H](C)O)NC2=O)cc1 [drawing 184] (X20-[Orn(4R-OH,5R-OH)]T[Hyp][hTyr(3S-OH,4S-OH)]T[Pro(3S-OH,4S-Me)]; lactam 1-C)	5000 ng/mL

Let's switch to this compound now.
Lab book: Cmax of CCCCCCCCCCSc1ccc(C(=O)N[C@H]2C[C@@H](O)[C@@H](O)NC(=O)[C@@H]3[C@@H](O)[C@@H](C)CN3C(=O)[C@H]([C@@H](C)O)NC(=O)[C@H]([C@H](O)[C@@H](O)c3ccc(O)cc3)NC(=O)[C@@H]3C[C@@H](O)CN3C(=O)[C@H]([C@@H](C)O)NC2=O)cc1 [drawing 186] (X6-[Orn(4R-OH,5R-OH)]T[Hyp][hTyr(3S-OH,4S-OH)]T[Pro(3S-OH,4S-Me)]; lactam 1-C) noted as 5000 ng/mL

* * *

Tested on: Candida albicans A-26
run_description: Agar plate disc diffusion test, MIC per disc
Assay type: cell-based
measurement_setup: 0.1M sodium borate, pH 7.5, 24 hours, 30° C.
Starred links: 1 amine or outer side, 2 acyl side, 3 side chain; linkers in the order of their positions; H or OH if unused. Positions of bridges follow the written chain, without caps; N, C: chain ends. Non-standard residues stand in square brackets, D forms with d. Residues, ends and D or L forms follow the SMILES beside them. *: point of attachment. Orn(4R-OH,5R-OH) = O=C([C@H](C[C@@H](O)[C@@H](O)N[*:3])N[*:1])[*:2]; hTyr(3S-OH,4S-OH) = N[C@H](C(=O)O)[C@H](O)[C@@H](O)c1ccc(O)cc1; Pro(3S-OH,4S-Me) = C[C@H]1CN[C@H](C(=O)O)[C@H]1O; Benzoyl(4-octyloxy) = CCCCCCCCOc1ccc(C(=O)*)cc1; Benzoyl(4-octyl) = CCCCCCCCc1ccc(C(=O)*)cc1; X5 = CCCCCCCCCCCCS(=O)(=O)c1ccc(C(=O)*)cc1; X18 = CCCCCCCCCCCCOc1ccc(CC(=O)*)cc1; X21 = CCCCCCCCOc1ccc(CCC(=O)*)cc1; Hyp = O=C(O)[C@@H]1C[C@@H](O)CN1
measured_quantity: MIC

See these solved cases before continuing.
molecule	MIC
CCCCCCCCCCCCS(=O)(=O)c1ccc(C(=O)N[C@H]2C[C@@H](O)[C@@H](O)NC(=O)[C@@H]3[C@@H](O)[C@@H](C)CN3C(=O)[C@H]([C@@H](C)O)NC(=O)[C@H]([C@H](O)[C@@H](O)c3ccc(O)cc3)NC(=O)[C@@H]3C[C@@H](O)CN3C(=O)[C@H]([C@@H](C)O)NC2=O)cc1 [drawing 125] (X5-[Orn(4R-OH,5R-OH)]T[Hyp][hTyr(3S-OH,4S-OH)]T[Pro(3S-OH,4S-Me)]; lactam 1-C)	0.625 μg/disc
CCCCCCCCc1ccc(C(=O)N[C@H]2C[C@@H](O)[C@@H](O)NC(=O)[C@@H]3[C@@H](O)[C@@H](C)CN3C(=O)[C@H]([C@@H](C)O)NC(=O)[C@H]([C@H](O)[C@@H](O)c3ccc(O)cc3)NC(=O)[C@@H]3C[C@@H](O)CN3C(=O)[C@H]([C@@H](C)O)NC2=O)cc1 [drawing 133] ({Benzoyl(4-octyl)}-[Orn(4R-OH,5R-OH)]T[Hyp][hTyr(3S-OH,4S-OH)]T[Pro(3S-OH,4S-Me)]; lactam 1-C)	0.625 μg/disc
CCCCCCCCCCCCOc1ccc(CC(=O)N[C@H]2C[C@@H](O)[C@@H](O)NC(=O)[C@@H]3[C@@H](O)[C@@H](C)CN3C(=O)[C@H]([C@@H](C)O)NC(=O)[C@H]([C@H](O)[C@@H](O)c3ccc(O)cc3)NC(=O)[C@@H]3C[C@@H](O)CN3C(=O)[C@H]([C@@H](C)O)NC2=O)cc1 [drawing 142] (X18-[Orn(4R-OH,5R-OH)]T[Hyp][hTyr(3S-OH,4S-OH)]T[Pro(3S-OH,4S-Me)]; lactam 1-C)	0.312 μg/disc
CCCCCCCCOc1ccc(CCC(=O)N[C@H]2C[C@@H](O)[C@@H](O)NC(=O)[C@@H]3[C@@H](O)[C@@H](C)CN3C(=O)[C@H]([C@@H](C)O)NC(=O)[C@H]([C@H](O)[C@@H](O)c3ccc(O)cc3)NC(=O)[C@@H]3C[C@@H](O)CN3C(=O)[C@H]([C@@H](C)O)NC2=O)cc1 [drawing 136] (X21-[Orn(4R-OH,5R-OH)]T[Hyp][hTyr(3S-OH,4S-OH)]T[Pro(3S-OH,4S-Me)]; lactam 1-C)	0.078 μg/disc

Let's switch to this molecule now.
Lab book: MIC of CCCCCCCCOc1ccc(C(=O)N[C@H]2C[C@@H](O)[C@@H](O)NC(=O)[C@@H]3[C@@H](O)[C@@H](C)CN3C(=O)[C@H]([C@@H](C)O)NC(=O)[C@H]([C@H](O)[C@@H](O)c3ccc(O)cc3)NC(=O)[C@@H]3C[C@@H](O)CN3C(=O)[C@H]([C@@H](C)O)NC2=O)cc1 [drawing 115] ({Benzoyl(4-octyloxy)}-[Orn(4R-OH,5R-OH)]T[Hyp][hTyr(3S-OH,4S-OH)]T[Pro(3S-OH,4S-Me)]; lactam 1-C) noted as 0.156 μg/disc
